- System: OVCAR-8 ovarian
- assay_notes: NCI tumour cell line growth inhibition, 48 h
Peptide text beside a SMILES is read from it. * marks the point of attachment. X26 = Clc1c(Cl)c(Cl)c(O*)c(Cl)c1Cl; Boc = CC(C)(C)OC(=O)*; OBn = c1ccc(CO*)cc1; Bn = c1ccc(C*)cc1
Overview of reported TGI across a group of compounds:
experimental_readout: TGI

compound	value
COc1ccc(-c2cc(-c3ccc(Cl)cc3)c(C#N)c(=O)n2CCCCC(=O)Nc2ccccc2N)cc1	> 100 µM
N=C(N)SCc1cn2ccccc2n1	> 100 µM
CC(C)CC(NC(=O)C(CCC(=O)OCc1ccccc1)NC(=O)OC(C)(C)C)C(=O)NC(COCc1ccccc1)C(=O)NC(Cc1ccccc1)C(=O)Oc1c(Cl)c(Cl)c(Cl)c(Cl)c1Cl (centres undefined) (Boc-E(OBn)LS(Bn)F-X26; configuration not given here)	65.5 µM
Nc1nncc2[nH]cnc12	> 79.8 µM
Cn1c2c(c3ccccc31)CCN1C(=O)C34CCCC3CC21S4 (centres undefined)	> 100 µM
COc1ccc(C2SC(N)=Nc3c2c(C)nn3C(=O)c2ccc(Cl)cc2)cc1OC (centres undefined)	> 10 µM
COc1cc(/C=C2\CN(C)CC3=C2Nc2nc(SC)[nH]c(=O)c2C3c2cc(OC)c(OC)c(OC)c2)cc(OC)c1OC (centres undefined)	> 100 µM
O=C1CC(c2ccccc2Cl)C2(C(=O)NC(=O)NC2=O)C(c2ccccc2Cl)C1 (centres undefined)	> 100 µM
CCN(CC)c1ccc(NC(=S)NN(C)C)cc1	> 10 µM

* * *

- Test system: T-47D breast
- assay_notes: NCI tumour cell line growth inhibition, 48 h
Below, each entry is listed alongside its reported GI50.
experimental_readout: GI50

compound	experimental_readout	value
Fc1cccc(COc2ccc(Nc3ncnc4sc(-c5ccco5)cc34)cc2Cl)c1	GI50	> 14.5 µM
N/C(=N\OC(=O)c1ccccc1)C(C(=O)NOC(=O)c1ccccc1)C1CCCCC1 (centres undefined)	GI50	7.57 µM
O=C(Nc1ccc(OC(F)(F)F)cc1)c1sccc1NCc1ccnc2ccccc12	GI50	2.48 µM
CS(=O)(=O)c1ccc(Cl)c([N+](=O)[O-])c1	GI50	13.5 µM
CCN(c1ccc(CO)c(Cl)c1)C(C)c1ccc(F)cc1 (centres undefined)	GI50	4.22 µM
CCN(CCCCCCCCCCN1CC(=O)N(CCCCCCCCCCN(CC)Cc2ccccc2OC)CC1=O)Cc1ccccc1OC	GI50	1.99 µM
C[n+]1cc2c3c(ccc2c2ccc4cc5c(cc4c21)OCO5)OCO3	GI50	1.42 µM
COc1ccc(-c2cc(-c3ccc(Cl)cc3)c(C#N)c(=O)n2CCCCC(=O)Nc2ccccc2N)cc1	GI50	4.44 µM
COC(=O)C1=C(OC(=O)c2ccc(Cl)cc2)C(C(=O)OC)[C@@]2(O)[C@@H](C(=O)OC)C(c3ccccc3C(F)(F)F)C[C@@H]1[C@@H]2C(=O)OC (some centres undefined)	GI50	4.82 µM

* * *

Reported TGI values follow for various compounds
- Test system: IGROV1 ovarian
- assay_notes: NCI tumour cell line growth inhibition, 48 h
experimental_readout: TGI

> print(dat)
                                    compound  experimental.readout     value
 1  O=c1c(-c2ccccc2)c(SCCN2CCCCCC2)n(-c2ccccc2)c(=S)n1-c1ccccc1                   TGI  > 100 µM
 2     Cn1nc2c(c1N)Cc1c(nn(C)c1N)-c1ccccc1-2                   TGI  > 100 µM
 3  Cc1cccc(NC(=O)c2sc3nc4c(cc3c2N)CCCC4)c1C                   TGI  > 100 µM
 4  COc1ccc2c(c1)-c1c(c3cc(OC)ccc3n1CCN(C)C)CC2                   TGI   25.9 µM
 5  NCCN(CCN(C(=O)Nc1ccccc1)c1ccccc1)C(=O)Nc1ccccc1                   TGI   36.7 µM
 6  CC1CCc2sc3nc4n(c(=O)c3c2C1)CC(C)S4 (stereo unspecified)                   TGI  > 100 µM
 7  Cc1ccc(C(=O)Nc2ccc(CN3CCN(C)CC3)c(C(F)(F)F)c2)cc1C#Cc1cnc(N)c2ccc(F)cc12                   TGI  0.501 µM
 8  COc1ccc(C2SC(N)=Nc3c2c(C)nn3C(=O)c2ccc(Cl)cc2)cc1OC (stereo unspecified)                   TGI   > 10 µM
 9             CCN(CC)c1ccc(NC(=S)NN(C)C)cc1                   TGI   > 10 µM
10  COc1ccc(C(C2=C(C)C(=O)c3ccccc3C2=O)c2ccc(C(C)C)cc(=O)c2O)cc1 (stereo unspecified)                   TGI   12.6 µM
11  CCC(=O)Nc1ccc(NS(=O)(=O)c2ccc(Cl)cc2)cc1                   TGI  > 100 µM
